Assay: Quantitative High-Throughput drug screen in 47 multiple myeloma cell lines against the NCATS MIPE library collection: INA6_PLB cell viability assay (AID 1918965; also: nearly all actives have a fitted effect of over 55% in size)
Details: INA6 myeloma viability, CellTiter-Glo ATP luminescence, 48 h; series mostly up to 45.8 µM
Results filed as inconclusive are left out. Calls of active or inactive are those of the source. Calls follow the shape of the dose curve; as a rule, active = well fitted cell-killing curve with a large enough effect; inconclusive = small, poorly fitted or top-dose-only effect, or effect the other way; inactive = no such curve, though single readings can be large or run the other way.
# output must be one of active, inactive

Field: outcome | Entry: Cc1cccc(C=NNc2cc(N3CCOCC3)nc(OCCc3ccccn3)n2)c1
active

Would you mind doing Nc1nc(NCCNc2ncc(-n3ccnc3)c(-c3ccc(Cl)cc3Cl)n2)ccc1[N+](=O)[O-] as well?
active

Would you mind doing CN(C)c1nc(Cc2ccc(NC(=O)c3ccc4ccccc4c3)cc2)nc(Cl)c1CC(=O)O as well?
inactive

Would you mind doing Cn1cncc1[C@@](N)(c1ccc(Cl)cc1)c1ccc2c(c1)c(-c1cccc(Cl)c1)cc(=O)n2C as well?
active

Would you mind doing CC1(C)OC2=C(C(=O)c3ccccc3C2=O)[C@H](NCc2ccccc2)[C@H]1O as well?
active

====

For each entry below, report its viability, percent of control value.
Experiment: Cell Proliferation Assay against the HBL1 Cell Line (AID 651646);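 also: cells exposed to compound for 48 h before reading; 100% = DMSO and 0% = 9.2 µM bortezomib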
Conditions: HBL1 DLBCL cells; at 46.1 µM (top of the series)
Give the value in % but do not write % after it.

Form field: reported viability, percent of control of O=C(NCCS(=O)(=O)c1ccc(C(F)(F)F)cn1)c1ccc(Cl)cc1
92

Would you mind doing O=C(c1ccc(Nc2nccc(-c3cc4ccccc4s3)n2)cc1)N1CCC(N2CCCC2)CC1 as well?
0.745

Would you mind doing CCC(=C(c1ccccc1)c1ccc(OCCN(C)C)cc1)c1ccccc1 as well?
-1.5

Would you mind doing CC(C)CC(=O)Nc1n[nH]c2c1CN(C(=O)C1CCN(C)CC1)C2(C)C as well?
49.6

Would you mind doing COc1cc2ncn(-c3cc(OCc4ccccc4C(F)(F)F)c(C(N)=O)s3)c2cc1OC as well?
41.7

Would you mind doing c1cc(-c2cnn3cc(-c4ccc(OCCN5CCCCC5)cc4)cnc23)ccn1 as well?
8.17

Would you mind doing O=C(C=Cc1cccc(S(=O)(=O)Nc2ccccc2)c1)NO as well?
2.01

Would you mind doing Cc1[nH]c2ccccc2c1CCNCc1ccc(C=CC(=O)NO)cc1 as well?
-0.0299

Would you mind doing O=C(C=Cc1c(C(=O)O)[nH]c2cc(Cl)cc(Cl)c12)Nc1ccccc1 as well?
112

Would you mind doing C[C@@H]1CN(CC(=O)Nc2ccc3c(c2)Cc2cccc(-c4cc(=O)cc(N5CCOCC5)o4)c2S3)C[C@H](C)O1 as well?
56.7

Would you mind doing Cc1ccc(-c2ncn(-c3ccc(Nc4nccc(-c5cccc(N6CCOCC6)c5)n4)cc3)n2)cn1 as well?
0.21

Would you mind doing CC(=O)Nc1sc2c(c1-c1nc3ccccc3s1)CNC2 as well?
22.5

Would you mind doing CCCCN1CCC(CNC(=O)c2c3n(c4ccccc24)CCCO3)CC1 as well?
93.7

Would you mind doing C=C1C(=CC=C2CCCC3(C)[C@@H]([C@H](C)C=CC=CC(O)(CC)CC)CC[C@@H]23)C[C@@H](O)C[C@@H]1O (some centres undefined) as well?
2.25

Would you mind doing Cc1ccc(C(=O)Nc2ccc(CN3CCN(C)CC3)c(C(F)(F)F)c2)cc1C#Cc1cnc2cccnn12 as well?
2.46

Would you mind doing C#Cc1cccc(Nc2ncnc3cc(OC)c(OCCCCCCC(=O)NO)cc23)c1 as well?
1.91

Would you mind doing NC(=O)Nc1cc(-c2cccc(F)c2)sc1C(=O)N[C@H]1CCCNC1 as well?
19.6

Would you mind doing CCN1CCN(CC(=O)Nc2ccc(-c3cccc4c(=O)cc(N5CCOCC5)oc34)c3sc4ccccc4c23)CC1 as well?
0.638

Would you mind doing C[C@]1(CO)CN(c2cc(C(=O)Nc3ccc4c(c3)-c3c(c(C(N)=O)nn3-c3ccc(F)cc3)CC4)c(Cl)cn2)C[C@@]1(C)CO as well?
23.3
